targetOrTestSystem: T1, biotinylated cTfR1 (Acro Bio p/n TFR-C8249) (cynomolgus monkey, UniProt H9EXL1 89-760 (rhesus entry), biotinylated; site not stated)
T1 construct: Bought reagent of the BLI assay
T1 sequence (chain, as listed by the source): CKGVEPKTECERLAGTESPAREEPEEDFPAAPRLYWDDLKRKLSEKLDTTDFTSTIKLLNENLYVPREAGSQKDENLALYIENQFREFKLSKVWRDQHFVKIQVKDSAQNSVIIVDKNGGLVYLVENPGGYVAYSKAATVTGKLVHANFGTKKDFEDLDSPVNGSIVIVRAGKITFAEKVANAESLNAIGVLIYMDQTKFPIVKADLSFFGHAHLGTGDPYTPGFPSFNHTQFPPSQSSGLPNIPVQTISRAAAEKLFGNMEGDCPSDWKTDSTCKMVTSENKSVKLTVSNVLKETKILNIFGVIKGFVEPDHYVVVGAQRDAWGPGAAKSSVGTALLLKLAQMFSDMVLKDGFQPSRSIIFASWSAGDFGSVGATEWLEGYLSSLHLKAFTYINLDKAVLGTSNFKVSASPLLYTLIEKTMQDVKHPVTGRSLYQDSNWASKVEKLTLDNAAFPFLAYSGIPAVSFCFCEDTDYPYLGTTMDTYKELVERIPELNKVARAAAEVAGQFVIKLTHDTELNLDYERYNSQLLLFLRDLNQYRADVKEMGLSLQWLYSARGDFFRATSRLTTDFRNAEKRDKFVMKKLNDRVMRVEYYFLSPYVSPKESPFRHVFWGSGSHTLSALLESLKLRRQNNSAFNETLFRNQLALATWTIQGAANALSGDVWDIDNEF
protocolDescription: BLI, Octet RH16, biotinylated TfR1 on streptavidin sensor; Fab-siRNA conjugate
quantityMeasured: koff (s⁻¹)
Unit s⁻¹ implied. Number only.

Field: example entries. Status: answers known.
binder	koff, s⁻¹
Fab0067-siRNA conjugate (Fab, V domains shown, siRNA-linker on a reduced cysteine; chain and residue not stated, also called Fab0067 (BLI conjugate columns)) VH: EVQLVESGGGLVQPGGSLRLSCATSGYTFTSYWVHWVRQAPGKGLEWVAEINPTNGRTNYIEKFKSRITLSVDKSKSTVYLQMNSLRAEDTAVYYCARGTRAYHYWGQGTLVTVSS VL: DIQLTQSPSSLSASVGDRVTITCRASDNLYRNLAWYQQKPGKAPKLLIYDATKLASGVPSRFSGSGSGTDYTLTISSLQPEDFATYYCQHFWGTPLTFGQGTKVEIKR	0.0019
Fab0068-siRNA conjugate (Fab, V domains shown, siRNA-linker on a reduced cysteine; chain and residue not stated, also called Fab0068 (BLI conjugate columns)) VH: EVQLVESGGGLVQPGGSLRLSCATSGYTFTSYWVHWVRQAPGKGLEWVAEINPTNGRVNYIEKFKSRITLSVDKSKSTVYLQMNSLRAEDTAVYYCARGTRAYHYWGQGTLVTVSS VL: DIQLTQSPSSLSASVGDRVTITCRASDGLYSNLAWYQQKPGKAPKLLIYDATKLASGVPSRFSGSGSGTDYTLTISSLQPEDFATYYCQHFWGTPLTFGQGTKVEIKR	0.00221

Switching to the query record.
Reported koff for Fab0073-siRNA conjugate (Fab, V domains shown, siRNA-linker on a reduced cysteine; chain and residue not stated, also called Fab0073 (BLI conjugate columns)) VH: EVQLVESGGGLVQPGGSLRLSCATSGYTFKSYWMHWVRQAPGKGLEWVAEINPTNGRTNYIEKFKSRITLSVDKSKSTVYLQMNSLRAEDTAVYYCARGTRAYHYWGQGTLVTVSS VL: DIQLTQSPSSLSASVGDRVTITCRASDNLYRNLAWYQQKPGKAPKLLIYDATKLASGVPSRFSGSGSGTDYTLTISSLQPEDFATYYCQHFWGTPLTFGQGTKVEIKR : what is it?
0.00321
